Recorded values, source the supplement of paper PMC9170038.

Test system: MS2 coat protein
ASSAY_INFO: apparent KD of MS2 coat protein, switch ON state; designed switch direction (-1 OFF switch, 1 ON switch): 1; higher = weaker reporter binding
CONDITIONS: FMN input: 0 or 200 uM; Eterna round: R93 (includes R88 designs)
PROPERTY_MEASURED: apparent KD of MS2 coat protein (nM)
Please reply with the bare figure in nM and do not write the unit itself.

Given AAAUAACAUGAGGAUCACCCAUGUUACAACAAUACAGGAUAUGUGGGUGAAAAUAGCAUGACAGAAGGGUACUGUA [SameState1 Malc#33] , state its recorded apparent KD of MS2 coat protein. 237

Next: CAGAGACAUGAGGAUCACCCAUGUAGGAUUAUGGGAGGAUAUACAAAGACGAGAGUCAGAGUAGAAGGCCUAGGAU [salish99-ss1-142] 21.2

Next: AAAACACAUGAGGAUCACCCAUGUGCCUAAUUCGCAGGAUAUUUCUCGAUUAAAUGAUAGGAAGAAGGGUGAUAAA [Nob's Hobby 36 - Jieux - Same State 1] 186

Next: CAAACAACAACACAGGAUAUACAUAUAAUAACAUGAGGAUCACCCAUGUAAGGCAAAAAUAAGCUGUAGAAGGGUGAACACACAA [Default title] 10.6

Next: AACAAUCUAUCUGAGGAUAUCAUUUCAAAGACAUGAGGAUCACCCAUGUGCAGGAAAACUGCAAAUGAGAAGGCAGAUAGAUUGA [SS2: 1107] 10.3

Next: GCAGGGCUACACUAGGAUAUGGGUGUCUAAACAUGAGGAUCACCCAUGUGAUGGCAAAACAAAGCUCAGAAGGAGUCGUAGCCCA [Bebirare] 14
